- System: Salmonella enterica
- assay protocol: Antimicrobial activity against Salmonella typhi at 1 mg/ml by agar-well diffusion method
- Format: functional, Salmonella enterica subsp. enterica serovar Typhi
- run conditions: read-out: IZ
assay metric: zone of inhibition at 1000 µg/mL (mm)

Cc1cc(NS(=O)(=O)c2ccc(/N=C/c3c[nH]c4ccccc34)cc2)no1 :: 19
N=C(N)NS(=O)(=O)c1ccc(/N=C/c2c[nH]c3ccccc23)cc1 :: 23
O=S(=O)(Nc1ncccn1)c1ccc(/N=C/c2c[nH]c3ccccc23)cc1 :: 17
C[C@@H](O)[C@H]1C(=O)N2C(C(=O)O)=C(SCCNC=N)C[C@H]12 [IMIPENEM ANHYDROUS] :: 27
Cc1cc(C)nc(NS(=O)(=O)c2ccc(/N=C/c3c[nH]c4ccccc34)cc2)n1 :: 22
Cc1noc(NS(=O)(=O)c2ccc(/N=C/c3c[nH]c4ccccc34)cc2)c1C :: 20
NS(=O)(=O)c1ccc(/N=C/c2c[nH]c3ccccc23)cc1 :: 20
O=S(=O)(Nc1nccs1)c1ccc(/N=C/c2c[nH]c3ccccc23)cc1 :: 23

* * *

- Test system: Pseudomonas aeruginosa
- assay protocol: Antimicrobial activity against Pseudomonas aeruginosa at 1 mg/ml by agar-well diffusion method
- Type: functional
- run conditions: read-out: IZ
Item-by-item account of zone of inhibition at 1000 µg/mL
assay metric: zone of inhibition at 1000 µg/mL (mm)

Cc1cc(C)nc(NS(=O)(=O)c2ccc(/N=C/c3c[nH]c4ccccc34)cc2)n1 :: 20
O=S(=O)(Nc1ncccn1)c1ccc(/N=C/c2c[nH]c3ccccc23)cc1 :: 20
O=S(=O)(Nc1nccs1)c1ccc(/N=C/c2c[nH]c3ccccc23)cc1 :: 20

meta.source: ChEMBL document CHEMBL1154837
